target: UL80.5 gene product/MCP interaction (Human cytomegalovirus, UniProt P16729); construct: Recombinant baculovirus Autographa californiica nuclear polyhedrosis virus expressing full-length CMV MCP; crude clarified supernatant used for coating; experiment: competitive binding assay (ELISA): inhibition of UL80.5 gene product/MCP interaction; conditions: 0.1 μg of UL80.5 peptide; compound 0.4 to 50 μM; average of six independent experiments (FIG. 3); read-out: average IC50 (concentration at which binding is reduced by 50%)
measured.property: pIC50
For clarity, pIC50 is expressed as the negative log10 of concentration in mol/L.

# pIC50 lookup, item "NCCc1c[nH]c2ccc(-c3ccc4ccccc4c3)cc12"
5.38
